Kindly supply the reported Percent Control values for the records listed here.
System: VPS34
Construct: gene PIK3C3
experimental-parameters: Compound Concentration (nM):1000;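 further: KINOMEscan scanMAX binding as percent activity remaining versus control; lower means stronger binding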
Remember to quote the unit after the number.

Consider the following items and state reported Percent Control for each.
1. C[C@@H](Oc1cc(-n2cnc3ccc(OC4CCN(C)CC4)cc32)sc1C(N)=O)c1ccccc1Cl [GSK579289A]
2. COc1ccc2[nH]c3c4[nH]c5ccc(OC)cc5c4c4c(c3c2c1)C(=O)NC4=O [GW296115X]

Solution:
29%
80%

For every item below, please supply its Percent Control.
1. COc1cc(N2CCN(C(C)C)CC2)ccc1Nc1nc(Nc2ccc(F)cc2C(=O)NC[C@@H](O)CO)c2cc[nH]c2n1 [GSK1392956A]
2. COc1ccc2c(-c3ccnc(Nc4cccc(OC(F)(F)F)c4)n3)cnn2n1 [GW810372X]
3. C/C(Nc1ccc(S(N)(=O)=O)cc1)=C1/C(=O)Nc2ccccc21 [GW335962X]

Solution:
1. 82%
2. 29%
3. 81%

Quick one: give me Percent Control for each item below, same order please.
1. COc1cc2ncn(-c3cc(O[C@H](C)c4ccccc4Cl)c(C(N)=O)s3)c2cc1OC [GSK237701A]
2. NS(=O)(=O)c1ccc(N/N=C2\C(=O)Nc3ccc(C(=O)NCCc4c[nH]cn4)cc32)cc1 [GW300660X]

Solution:
1: 0.3%; 2: 86%

Exercise: Can you share its Percent Control? I mean this compound: CCc1ccc(Oc2nccc(-c3c(-c4ccc(F)cc4)ncn3C3CCNCC3)n2)cc1
Solution: 64%

---

Test system: ALK(C1156Y)
experimental-parameters: Compound Concentration (nM):1000
endpoint-label: Percent Control
A complete answer gives the number and then names the unit.

Here is how some compounds turned out for Percent Control.
[
  {
    "compound": "COc1ccccc1-c1cc(/C=C2\\C(=O)Nc3ncc(Br)cc32)cc(Br)c1O [GW442130X]",
    "observed": "100%"
  },
  {
    "compound": "O=C1Nc2ccc(C(=O)c3ccco3)cc2C1=Cc1cc(Cl)c(O)c(Cl)c1 [GW406108X]",
    "observed": "76%"
  }
]

Could you now look at the following compound, please?
Exercise: // lookup Percent Control for C[C@@H](Oc1cc(-n2cnc3ccc(OC4CCN(C)CC4)cc32)sc1C(N)=O)c1ccccc1Cl [GSK579289A]
Solution: 82%

---

Hi there, I'd appreciate the recorded Percent Control for every entry that follows.
System: EGFR
experimental-parameters: Compound Concentration (nM):1000

[
  {
    "compound": "Cl.O=S1CCN(Cc2ccc(-c3ccc4ncnc(Nc5ccc(OCc6ccccc6)c(F)c5)c4c3)o2)CC1 [GW576924A]",
    "observed": "0.5%"
  },
  {
    "compound": "CN1CCN(C(=O)c2ccc(NC(=O)Nc3ccc(N(C)c4ccnc(Nc5ccc(CS(C)(=O)=O)cc5)n4)cc3)cc2)CC1.Cl [GW830263A]",
    "observed": "100%"
  }
]

# return Percent Control for each item in the list
1. NS(=O)(=O)c1ccc(N/N=C2\C(=O)Nc3ccc(-c4cnco4)cc32)cc1
2. Nc1ncnc2occ(-c3ccc(NC(=O)Nc4cc(C(F)(F)F)ccc4F)cc3)c12 [GW770249X]
3. Cc1cc(O)cc(C)c1/C=C/c1cncc(C(N)=O)c1 [GW435821X]

Solution:
1: 87%; 2: 100%; 3: 78%

Value sought for every listed compound: Percent Control.
1. COc1ccc2[nH]c3c4[nH]c5ccc(OC)cc5c4c4c(c3c2c1)C(=O)NC4=O [GW296115X]
2. O=C(Nc1n[nH]c2nc(-c3ccc(O)cc3)c(Br)cc12)C1CC1
3. C/C(Nc1ccc(S(N)(=O)=O)cc1)=C1/C(=O)Nc2ccccc21 [GW335962X]
4. CCS(=O)(=O)c1ccc(OC)c(Nc2ncc(-c3cccc(OC)c3)o2)c1 [GW580509X]

Solution:
["51%", "100%", "100%", "83%"]
